- Test system: SW948 cells
- assayNotes: Cell viability (MTS) assay, P15 pre-treatment on intrinsic drug-refractory tumor cells
- Type: cell-based, human
- conditionDetails: no P15 pre-treatment, read-out: IC50, Cytostatic drug alone
pIC50: −log10 of the molar value.
experimentalReadout: pIC50

For N.N.[Cl][Pt][Cl] [Cisplatin, cisplatin] , what is its reported pIC50?
≤ 3.00

----------
- System: H-125 cells
- assayNotes: Cell viability (MTS) assay, sequential: P15 pre-treatment, then cytostatic drug
- conditionDetails: Homo sapiens, NCI-H125, read-out: IC50, Cytostatic drug alone
Entries and their IC50 values follow.
Respond numerically; units are nM and should not be typed.

COc1cc([C@@H]2c3cc4c(cc3[C@@H](O[C@@H]3O[C@@H]5CO[C@@H](C)O[C@H]5[C@H](O)[C@H]3O)[C@H]3COC(=O)[C@H]23)OCO4)cc(OC)c1O [Etoposide, etoposide]; 561
Nc1ccn([C@@H]2O[C@H](CO)[C@@H](O)[C@@H]2O)c(=O)n1 [Cytarabine (AraC), cytarabine]; 980
Nc1nc(F)nc2c1ncn2[C@@H]1O[C@H](CO)[C@@H](O)[C@@H]1O [Fludarabine, fludarabine]; 865

For CC(=O)O[C@H]1C(=O)[C@@]2(C)[C@H]([C@H](OC(=O)c3ccccc3)[C@]3(O)C[C@H](OC(=O)[C@H](O)[C@@H](NC(=O)c4ccccc4)c4ccccc4)C(C)=C1C3(C)C)[C@]1(OC(C)=O)CO[C@@H]1C[C@@H]2O [Paclitaxel, paclitaxel] , what is its reported IC50?
17

For O=P1(N(CCCl)CCCl)NCCCO1 (centres unmarked) [Cyclophosphamide, cyclophosphamide] , what is its reported IC50?
2400

For CC(C)C[C@H](NC(=O)[C@H](Cc1ccccc1)NC(=O)c1cnccn1)B(O)O [Velcade, Bortezomib] , what is its reported IC50?
2000

For O=c1[nH]cc(F)c(=O)[nH]1 [5-Fluorouracil, 5-fluorouracil] , what is its reported IC50?
1200

For CO[C@@]12[C@H](COC(N)=O)C3=C(C(=O)C(C)=C(N)C3=O)N1C[C@@H]1N[C@@H]12 [Mitomycin C, mitomycin C] , what is its reported IC50?
994

----------
- Tested on: SW948 cells
- assayNotes: Cell viability (MTS) assay, P15 pre-treatment on intrinsic drug-refractory tumor cells
- Assay type: cell-based, human
- conditionDetails: Homo sapiens, no P15 pre-treatment, read-out: IC50, Cytostatic drug alone
experimentalReadout: IC50

CC(=O)O[C@H]1C(=O)[C@@]2(C)[C@H]([C@H](OC(=O)c3ccccc3)[C@]3(O)C[C@H](OC(=O)[C@H](O)[C@@H](NC(=O)c4ccccc4)c4ccccc4)C(C)=C1C3(C)C)[C@]1(OC(C)=O)CO[C@@H]1C[C@@H]2O; ≥ 1000 µM

Given the entry COc1cccc2c1C(=O)c1c(O)c3c(c(O)c1C2=O)C[C@@](O)(C(=O)CO)C[C@@H]3O[C@H]1C[C@H](N)[C@H](O)[C@H](C)O1 , what IC50 was observed with SW948 cells?
≥ 1000 µM

----------
- Test system: H-125 cells
- assayNotes: Cell viability (MTS) assay, sequential: P15 pre-treatment, then cytostatic drug
- conditionDetails: read-out: IC50, Cytostatic drug + P15 pre-treatment
experimentalReadout: IC50

Given the entry O=P1(N(CCCl)CCCl)NCCCO1 (stereo not shown) [Cyclophosphamide, cyclophosphamide] , what IC50 was observed with H-125 cells?
100 nM

Measured values drawn from patent US9278118B2 for this set.
